Value source: patent US11613527B2

Catalogue of solubility at 24 h readings, one per entry.
ASSAY: Solubility after 24 hrs in Fasted State Simulated Intestinal Fluid (FaSSIF)
Type: physicochemical
MEASUREMENT_CONDITIONS: Fasted State Simulated Intestinal Fluid (FaSSIF), thermodynamic from solid, 24 hrs at 37° C., nominal concentration 1 mg/mL (as free base)
Entry rule: numbers only, all in µg/mL.

Example molecules with recorded solubility at 24 h:
CHEM_SMILES	READING
COCc1nn(Cc2cc3c(cc2F)CCN(C)C3)cc1C(=O)NCc1c(-n2cc(C)nn2)ccc(OC)c1F	930
COc1ccc(-n2cc(C)nn2)c(CNC(=O)c2cn(Cc3cnc4c(c3)CCN(C)C4)nc2C(F)F)c1F	810
COc1ccc(-n2cc(C)nn2)c(CNC(=O)c2cn(Cc3ccc4c(c3)CN(C(C)C)C4)nn2)c1F	950

*Q* Item under review: `COc1ccc(-n2cc(C)nn2)c(CNC(=O)c2cn(Cc3ccc4c(c3)CN(C)CC4)c(C)n2)c1F` . Reported solubility at 24 h?
*A* 750

====

Catalogue of solubility at 24 h readings, one per entry.
ASSAY: Solubility after 24 hrs in Fasted State Simulated Intestinal Fluid (FaSSIF)
Format: physicochemical
MEASUREMENT_CONDITIONS: Fasted State Simulated Intestinal Fluid (FaSSIF), thermodynamic from solid, 24 hrs at 37° C., nominal concentration 1 mg/mL (as free base)

Example molecules with recorded solubility at 24 h:
MOLECULE	solubility at 24 h
COCc1nn(Cc2ccc3c(c2)CCN(C(C)C)C3)cc1C(=O)NCc1c(-n2cc(C)nn2)ccc(OC)c1F	> 1000 µg/mL
COCc1nn(Cc2ccc3c(c2)COCC3)cc1C(=O)NCc1c(-n2cc(C)nn2)ccc(OC)c1F	50 µg/mL
COCc1nn(Cc2ccc3c(c2)CCN(C)C3)cc1C(=O)NCc1c(-n2cc(C(F)F)nn2)ccc(OC)c1F	> 1000 µg/mL
COCc1nn(Cc2ccc3c(c2)CN(C)CC32CC2)cc1C(=O)NCc1c(-n2cc(C)nn2)ccc(OC)c1F	880 µg/mL
COCc1nn(Cc2cnc(N3CCCC3)nc2)cc1C(=O)NCc1c(-n2cnnn2)ccc(OC)c1F [RC4, reference compound]	170 µg/mL
COCc1nn(Cc2ccc3c(c2)CN(C)CC3)cc1C(=O)NCc1c(-n2cc(C(F)F)nn2)ccc(OC)c1F	930 µg/mL

*Q* Item under review: `COCc1nn(Cc2ccc3c(c2)CCN(C)C3)cc1C(=O)NCc1c(-n2cnc(C(F)F)n2)ccc(OC)c1F` . Reported solubility at 24 h?
*A* > 1000 µg/mL

*Q* Item under review: COCc1nn(Cc2cnc(N3CCCC3)nc2)cc1C(=O)NCc1c(-n2cc(C)nn2)ccc(OC)c1F [RC6, reference compound] . Reported solubility at 24 h?
*A* 100 µg/mL

*Q* Item under review: `CCN1CCc2cc(Cn3cc(C(=O)NCc4c(-n5cnc(C(F)(F)F)n5)ccc(OC)c4F)c(COC)n3)ccc2C1` . Reported solubility at 24 h?
*A* 770 µg/mL

*Q* Item under review: `CCN1CCc2cc(Cn3cc(C(=O)NCc4c(-n5cnc(C(F)F)n5)ccc(OC)c4F)c(COC)n3)ccc2C1` . Reported solubility at 24 h?
*A* 720 µg/mL

*Q* Item under review: `COc1ccc(-n2cc(C)nn2)c(CNC(=O)c2cn(Cc3cc4n(n3)CCN(C)C4)nc2C(F)(F)F)c1F` . Reported solubility at 24 h?
*A* 650 µg/mL

====

TARGET_OR_TEST_SYSTEM: Human FXIa (Homo sapiens (Human), UniProt P03951)
Sequence (P03951 388-625): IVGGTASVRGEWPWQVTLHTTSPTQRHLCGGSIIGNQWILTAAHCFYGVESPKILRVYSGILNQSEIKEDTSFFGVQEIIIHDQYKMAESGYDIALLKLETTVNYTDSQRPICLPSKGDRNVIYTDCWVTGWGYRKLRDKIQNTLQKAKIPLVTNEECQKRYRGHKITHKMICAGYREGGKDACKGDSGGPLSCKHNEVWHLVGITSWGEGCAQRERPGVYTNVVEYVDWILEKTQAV
Sequence (P03951 19-387 partner): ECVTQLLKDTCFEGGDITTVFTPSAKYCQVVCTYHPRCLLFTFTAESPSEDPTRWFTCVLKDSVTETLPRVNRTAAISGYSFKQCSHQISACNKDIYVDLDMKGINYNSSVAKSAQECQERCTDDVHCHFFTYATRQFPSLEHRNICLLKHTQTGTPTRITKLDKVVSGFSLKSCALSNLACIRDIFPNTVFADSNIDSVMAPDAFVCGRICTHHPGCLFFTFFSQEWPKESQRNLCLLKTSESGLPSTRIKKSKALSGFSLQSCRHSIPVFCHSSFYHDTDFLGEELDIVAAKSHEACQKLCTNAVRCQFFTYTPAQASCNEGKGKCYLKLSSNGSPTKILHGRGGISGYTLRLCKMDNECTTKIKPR
Catalogue of IC50 readings, one per entry.

Example molecules with recorded IC50:
MOLECULE	IC50
COCc1nn(Cc2ccc3c(c2)CCN(C(C)C)C3)cc1C(=O)NCc1c(-n2ccc(C#N)n2)ccc(OC)c1F	> 40 µM
COCc1nn(Cc2ccc3c(c2)CCN(C)C3)cc1C(=O)NCc1c(-n2ccc(C#N)n2)ccc(OC)c1F	31.8 µM
COCc1nn(Cc2cnc(N3CCCC3)nc2)cc1C(=O)NCc1c(-n2cc(C(F)F)nn2)ccc(OC)c1F [RC7, reference compound]	0.559 µM

Now take the following molecule into account.
*Q* Item under review: `CCN1CCc2cc(Cn3cc(C(=O)NCc4c(-n5cc(C)nn5)ccc(OC)c4F)c(COC)n3)ccc2C1` . Reported IC50?
*A* > 40 µM

====

ASSAY: Solubility after 24 hrs in Fasted State Simulated Intestinal Fluid (FaSSIF)
Format: physicochemical
MEASUREMENT_CONDITIONS: Fasted State Simulated Intestinal Fluid (FaSSIF), thermodynamic from solid, 24 hrs at 37° C., nominal concentration 1 mg/mL (as free base)
If the reported solubility at 24 h equals or exceeds 800 µg/mL, assign fulfilled. If not, assign not fulfilled.

CHEM_SMILES	ASSIGNED_CLASS
COc1ccc(-n2cc(C)nn2)c(CNC(=O)c2cn(Cc3cc4n(n3)CCN(C)C4)nc2C(F)F)c1F	not fulfilled

*Q* Does solubility at 24 h meet or surpass 800 µg/mL for `COCc1nn(Cc2ccc3c(c2)CCN(C)C3)cc1C(=O)NCc1c(-n2cc(C)nn2)ccc(OC)c1F` ?
*A* fulfilled

*Q* Does solubility at 24 h meet or surpass 800 µg/mL for `COCc1nn(Cc2ccc3c(c2)CN(C(C)C)CC3)cc1C(=O)NCc1c(-n2cnc(C(F)(F)F)n2)ccc(OC)c1F` ?
*A* not fulfilled

====

TARGET_OR_TEST_SYSTEM: Human FXIa (Homo sapiens (Human), UniProt P03951)
READOUT_NAME: IC50 (µM)
Entry rule: numbers only, all in µM.

MOLECULE	IC50 (µM)
CCN1Cc2ccc(Cn3cc(C(=O)NCc4c(-n5cc(C)nn5)ccc(OC)c4F)c(COC)n3)cc2C1	16.3
COCc1nn(Cc2ccc3c(c2)CN(C(C)C)CC3)cc1C(=O)NCc1c(-n2ccc(C#N)n2)ccc(OC)c1F	23.8

Now take the following molecule into account.
*Q* Write down the reported IC50 of `COCc1nn(Cc2ccc3c(c2)C(F)(F)CN(C)C3)cc1C(=O)NCc1c(-n2cc(C)nn2)ccc(OC)c1F` , test system: Human FXIa (Homo sapiens (Human), UniProt P03951).
*A* 30

====

Catalogue of pIC50 readings, one per entry.
TARGET_OR_TEST_SYSTEM: Human plasma kallikrein (Homo sapiens (Human))
ASSAY: Determination of the IC50 for plasma kallikrein (fluorogenic substrate H-DPro-Phe-Arg-AFC)
MEASUREMENT_CONDITIONS: class symbols A-D, read-out: IC50 (human PKal)
pIC50: −log10 of the molar value.

*Q* Item under review: `COCc1nn(Cc2ccc3c(c2)CN(C(C)C)C3)cc1C(=O)NCc1c(-n2cnc(C(F)F)n2)ccc(OC)c1F` . Reported pIC50?
*A* > 8.00

*Q* Item under review: `COCc1nn(Cc2ccc3c(c2)CN(C)C3)cc1C(=O)NCc1c(-n2cc(C)nn2)ccc(OC)c1F` . Reported pIC50?
*A* > 8.00

====

Catalogue of log10(Cmax) readings, one per entry.
ASSAY: Pharmacokinetics following a single oral dose in male Sprague-Dawley rats
Format: in vivo
MEASUREMENT_CONDITIONS: rat, nominal 5 mg/kg in 10% DMSO/10% cremophor/80% SWFI, plasma
Scale: decimal log of Cmax, Cmax in ng/mL.

Example compounds with recorded log10(Cmax):
CHEM_SMILES	READING
COCc1nn(Cc2ccc3c(c2)CCN(C(C)C)C3)cc1C(=O)NCc1c(-n2ccc(C#N)n2)ccc(OC)c1F	1.53
COCc1nn(Cc2ccc3c(c2)CN(C(C)C)C3)cc1C(=O)NCc1c(-n2cc(C)nn2)ccc(OC)c1F	2.13
COCc1nn(Cc2ccc3c(c2)CNCC32CC2)cc1C(=O)NCc1c(-n2cc(C)nn2)ccc(OC)c1F	0.95

*Q* Item under review: `COCc1nn(Cc2ccc3c(c2)CN(C)CC3)cc1C(=O)NCc1c(-n2cnc(C(F)(F)F)n2)ccc(OC)c1F` . Reported log10(Cmax)?
*A* 1.94

*Q* Item under review: `COCc1nn(Cc2ccc3c(c2)CCN(C(C)C)C3)cc1C(=O)NCc1c(-n2cc(C)nn2)ccc(OC)c1F` . Reported log10(Cmax)?
*A* 1.58

*Q* Item under review: `COCc1nn(Cc2ccc3c(c2)CN(C)C3)cc1C(=O)NCc1c(-n2cc(C)nn2)ccc(OC)c1F` . Reported log10(Cmax)?
*A* 2.19

====

TARGET_OR_TEST_SYSTEM: Human plasma kallikrein (Homo sapiens (Human), UniProt P03952)
Sequence (P03952 391-638): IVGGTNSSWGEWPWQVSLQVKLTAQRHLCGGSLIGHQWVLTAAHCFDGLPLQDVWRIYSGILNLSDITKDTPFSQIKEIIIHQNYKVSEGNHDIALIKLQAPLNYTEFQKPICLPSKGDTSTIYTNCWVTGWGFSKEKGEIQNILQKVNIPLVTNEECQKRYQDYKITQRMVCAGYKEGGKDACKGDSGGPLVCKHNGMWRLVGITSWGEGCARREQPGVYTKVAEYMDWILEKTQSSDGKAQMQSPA
Sequence (P03952 20-390 partner): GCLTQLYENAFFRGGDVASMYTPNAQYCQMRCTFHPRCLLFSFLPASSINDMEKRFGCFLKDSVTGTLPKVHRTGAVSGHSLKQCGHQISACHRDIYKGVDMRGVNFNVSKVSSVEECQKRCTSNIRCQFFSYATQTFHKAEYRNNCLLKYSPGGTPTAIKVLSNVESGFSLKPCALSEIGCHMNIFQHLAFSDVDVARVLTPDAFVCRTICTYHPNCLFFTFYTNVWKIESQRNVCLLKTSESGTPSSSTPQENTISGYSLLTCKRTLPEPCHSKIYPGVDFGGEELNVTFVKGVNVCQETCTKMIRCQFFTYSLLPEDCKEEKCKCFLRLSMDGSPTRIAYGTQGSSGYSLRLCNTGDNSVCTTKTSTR
ASSAY: Determination of the IC50 for plasma kallikrein (fluorogenic substrate H-DPro-Phe-Arg-AFC)
MEASUREMENT_CONDITIONS: class symbols A-D, read-out: IC50 (human PKal)
pIC50: −log10 of the molar value.
READOUT_NAME: pIC50

COMPOUND	pIC50
COCc1nn(Cc2ccc3c(c2)CNC3)cc1C(=O)NCc1c(-n2cc(C)nn2)ccc(OC)c1F [Example 53]	7.00 to 7.52
COCc1nn(Cc2ccc3c(c2)CCN(C(C)C)C3)cc1C(=O)NCc1c(-n2ccc(C#N)n2)ccc(OC)c1F [Example 46]	> 8.00

*Q* Item under review: COCc1nn(Cc2ccc3c(c2)C(F)(F)CN(C)C3)cc1C(=O)NCc1c(-n2cc(C)nn2)ccc(OC)c1F [Example 105] . Reported pIC50?
*A* > 8.00

*Q* Item under review: COCc1nn(Cc2ccc3c(c2)CCN(C(C)C)C3)cc1C(=O)NCc1c(-n2cc(C)nn2)ccc(OC)c1F [Example 37] . Reported pIC50?
*A* > 8.00
